Catalogue of pEC50 readings, one per entry.
# tested system: hFXR (Homo sapiens, UniProt Q96RI1)
# Sequence (Q96RI1 whole entry): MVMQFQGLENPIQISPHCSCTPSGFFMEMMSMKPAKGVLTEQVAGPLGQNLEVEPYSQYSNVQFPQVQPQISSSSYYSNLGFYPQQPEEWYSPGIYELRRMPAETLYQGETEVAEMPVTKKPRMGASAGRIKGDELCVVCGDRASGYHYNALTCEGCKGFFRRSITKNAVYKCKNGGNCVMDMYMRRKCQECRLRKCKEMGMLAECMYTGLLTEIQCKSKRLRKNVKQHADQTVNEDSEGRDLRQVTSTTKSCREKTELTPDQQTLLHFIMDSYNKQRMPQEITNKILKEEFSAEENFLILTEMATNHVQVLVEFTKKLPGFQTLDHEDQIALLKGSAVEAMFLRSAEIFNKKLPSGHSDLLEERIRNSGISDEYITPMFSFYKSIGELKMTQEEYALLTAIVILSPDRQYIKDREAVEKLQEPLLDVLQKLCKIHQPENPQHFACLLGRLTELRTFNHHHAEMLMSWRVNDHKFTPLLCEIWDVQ
# Sequence (P19793 whole entry partner): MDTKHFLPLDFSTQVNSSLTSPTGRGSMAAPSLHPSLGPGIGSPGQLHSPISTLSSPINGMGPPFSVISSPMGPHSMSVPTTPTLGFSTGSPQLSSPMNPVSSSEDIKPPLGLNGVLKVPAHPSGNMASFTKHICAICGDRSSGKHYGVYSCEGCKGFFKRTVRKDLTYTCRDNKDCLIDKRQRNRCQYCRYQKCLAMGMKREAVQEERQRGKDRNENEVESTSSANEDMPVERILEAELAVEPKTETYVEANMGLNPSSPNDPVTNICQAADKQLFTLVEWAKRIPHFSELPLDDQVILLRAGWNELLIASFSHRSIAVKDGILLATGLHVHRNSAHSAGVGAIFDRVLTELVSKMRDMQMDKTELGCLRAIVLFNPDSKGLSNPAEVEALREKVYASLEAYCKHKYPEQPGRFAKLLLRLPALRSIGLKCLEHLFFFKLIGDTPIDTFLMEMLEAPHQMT
# assay summary: In Vitro FXR Assay (TK): TK-ECRE-luc reporter in transfected CV-1 cells
# condition: 18 hrs, luminescence, maximum efficacy of <25% of the Fexarmine control classified as '+'
pEC50: −log10 of the molar value.

COc1ccc([C@H]2CC[C@H](CN(c3cc(-c4coc(C5CC5)n4)ccn3)C(=O)[C@H]3CC[C@H](NC(C)=O)CC3)CC2)cc1C on hFXR (Homo sapiens, UniProt Q96RI1) gives pEC50 = ≥ 6.60

CCC1CN(C(=O)O[C@H]2CC[C@H](C(=O)N(C[C@H]3CC[C@H](c4ccc(OC)c(C#N)c4)CC3)c3cc(-c4cnn(C(C)C)c4)ccn3)CC2)C1 on hFXR (Homo sapiens, UniProt Q96RI1) gives pEC50 = ≥ 6.60

COc1ccc([C@H]2CC[C@H](CN(c3cccc(-c4cnn(C5CC5)c4)c3)C(=O)[C@H]3CC[C@H](OC(=O)N4CC(C(=O)O)C4)CC3)CC2)cc1C on hFXR (Homo sapiens, UniProt Q96RI1) gives pEC50 = ≥ 6.60

COc1ccc([C@H]2CC[C@H](CN(c3cccc(-c4cnc(C5CC5)s4)c3)C(=O)[C@H]3CC[C@H](CC(=O)O)CC3)CC2)cc1C on hFXR (Homo sapiens, UniProt Q96RI1) gives pEC50 = ≥ 6.60

COc1ccc([C@H]2CC[C@H](CN(c3cccc(-c4cnn(C5CC5)c4)c3)C(=O)[C@H]3CC[C@H](OC(N)=O)CC3)CC2)cc1C on hFXR (Homo sapiens, UniProt Q96RI1) gives pEC50 = ≥ 6.60

COc1ccc([C@H]2CC[C@H](CN(c3cccc(-c4cnn(C5CC5)c4)c3)C(=O)[C@H]3CC[C@H](OC(=O)N4CC(N(C)C)C4)CC3)CC2)cc1C on hFXR (Homo sapiens, UniProt Q96RI1) gives pEC50 = ≥ 6.60

CNC(=O)N[C@H]1CC[C@H](C(=O)N(C[C@H]2CC[C@H](c3ccc(OC)c(C)c3)CC2)c2cccc(-c3cnc(C4CC4)s3)c2)CC1 on hFXR (Homo sapiens, UniProt Q96RI1) gives pEC50 = ≥ 6.60

COc1ccc([C@H]2CC[C@H](CN(c3cc(-c4coc(C5CC5)n4)ccn3)C(=O)[C@H]3CC[C@H](CNS(C)(=O)=O)CC3)CC2)nc1C on hFXR (Homo sapiens, UniProt Q96RI1) gives pEC50 = ≥ 6.60

CNC(=O)O[C@]1(C)CC[C@H](C(=O)N(C[C@H]2CC[C@H](c3ccc(OC)c(C)c3)CC2)c2cccc(-c3cnn(C(C)C)c3)c2)CC1 on hFXR (Homo sapiens, UniProt Q96RI1) gives pEC50 = ≥ 6.60

COC(=O)NC[C@H]1CC[C@H](C(=O)N(C[C@H]2CC[C@H](c3ccc(OC)c(C)n3)CC2)c2cc(-c3coc(C4CC4)n3)ccn2)CC1 on hFXR (Homo sapiens, UniProt Q96RI1) gives pEC50 = ≥ 6.60

---
CN(C)c1ccc([C@H]2CC[C@H](CN(c3cccc(-c4coc(C5CC5)n4)c3)C(=O)[C@H]3CC[C@H](OC(=O)NCCO)CC3)CC2)cn1 on hFXR (Homo sapiens, UniProt Q96RI1) gives pEC50 = ≥ 6.60

CN(C)c1ccc(C23CCC(CN(c4cccc(-c5cnn(C6CC6)c5)c4)C(=O)[C@H]4CC[C@H](OC(=O)NCCO)CC4)(CC2)CC3)cn1 on hFXR (Homo sapiens, UniProt Q96RI1) gives pEC50 = ≥ 6.60

COc1ccc([C@H]2CC[C@H](CN(c3cc(-c4coc(C5CC5)n4)ccn3)C(=O)[C@H]3CC[C@H](OC(=O)N(C)CC(C)O)CC3)CC2)nc1C (stereo partly shown) on hFXR (Homo sapiens, UniProt Q96RI1) gives pEC50 = ≥ 6.60

COC(=O)CNC(=O)O[C@H]1CC[C@H](C(=O)N(C[C@H]2CC[C@H](c3ccc(OC)c(C)c3)CC2)c2cccc(-c3cnn(C4CC4)c3)c2)CC1 on hFXR (Homo sapiens, UniProt Q96RI1) gives pEC50 = ≥ 6.60

COc1ccc([C@H]2CC[C@H](CN(c3cccc(-c4cnn(C(C)C)c4)c3)C(=O)[C@H]3CC[C@H](OC(=O)N4CC(O)C4)CC3)CC2)cc1C on hFXR (Homo sapiens, UniProt Q96RI1) gives pEC50 = ≥ 6.60
